- Test system: c-Abl (mouse);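 note: 11-residue human phosphosite peptides and single-mutation variants displayed on the E. coli surface, counted by deep sequencing, each peptide's frequency after selection divided by its frequency in the unselected input library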;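 note: frequency after pTyr selection over input frequency; kinase dosed for 20-30% of maximal phosphorylation in three min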
- test-details: phosphorylation enrichment, bacterial display (enrichment ratio); higher = better substrate or ligand; peptides without Tyr show the background
// reported phosphorylation enrichment for each item listed
Number, no unit, nothing else.

{"columns": ["seq", "phosphorylation enrichment"],
 "data": [
  ["IPGMEYLVSII [TNC_Y1775_V1773M]", 0.825]
]}

Prompt line: Value lookup for phosphorylation enrichment; key = NKEPRYQEDPP [TJP2_Y479]
Response line: 0.48

Prompt line: Value lookup for phosphorylation enrichment; key = FIGVTYKNKED [PDGFRA_Y993_E996K_YF]
Response line: 0.567

Prompt line: Value lookup for phosphorylation enrichment; key = CTTIHYNYMCI [TP53_Y234_N239I]
Response line: 0.509

Prompt line: Value lookup for phosphorylation enrichment; key = DDLTDYLMKIL [ACTA1_Y190_R185D]
Response line: 0.758

Prompt line: Value lookup for phosphorylation enrichment; key = DLFRLYVCVKE [ARID1B_Y1091]
Response line: 0.875

Prompt line: Value lookup for phosphorylation enrichment; key = PVGDAYKKKGL [NMNAT1_Y55]
Response line: 0.574

Prompt line: Value lookup for phosphorylation enrichment; key = DLFRLYICVKE [ARID1B_Y1091_V1092I]
Response line: 0.997

Prompt line: Value lookup for phosphorylation enrichment; key = IVGRLYRLLTE [SETX_Y1978_L1976R]
Response line: 0.676

Prompt line: Value lookup for phosphorylation enrichment; key = ECKLLYSQKEG [PTPN11_Y263_R265Q]
Response line: 0.724

Prompt line: Value lookup for phosphorylation enrichment; key = FRDMDYRSFPR [RBM10_Y41_YF]
Response line: 0.485
